- assaySystem: Calmodulin-1 (Homo sapiens)
- experiment: calcium-bound CALM1 binders on microarrays, profiling panel, artefact control for SMM control-protein annotation, biochemical, small-molecule microarray, Cy5-labelled CALM1, plus calcium (AID 1112);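 note: score merges spot fluorescence with signal to noise from triplicate slides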
- conditionParameters: Cy5-CALM1 binding fluorescence, higher = more signal
reportedMetric: composite z-score
Give bare numbers.

# example entries with known answers
C=C[C@@H](C)[C@@H](OC(=O)Nc1ccc(SC)cc1)c1ccc(OCCO)cc1
0.305
Cc1ccc(N2C(=O)c3ccccc3[C@](C)(C(=O)NCc3ccccc3)[C@@H]2c2ccc(CO)cc2)nc1
-0.497
CC(C)[C@H]1NC(=O)[C@@]23C(=O)N[C@@H](Cc4ccccc4)C2[C@H](C)[C@@]2(C)O[C@H]2C3/C=C/C/C=C\CNC(=O)[C@H](Cc2ccccc2)NC1=O (stereo not given in full)
-0.584

For each entry beneath this line, provide reported composite z-score.
1. C=CCNC(=O)[C@H]1[C@@H]2C(=O)O[C@@H](c3ccccc3)[C@@H](c3ccccc3)N2[C@@H](c2ccc(O)cc2)[C@]12C(=O)N(C(=O)OCCOC)c1ccc(C#CCC(C(=O)OC)C(=O)OC)cc12
2. O=C1O[C@H](c2ccccc2)[C@H](c2ccccc2)N2[C@H]1[C@@H](C(=O)N1CCCCCCC1)[C@]1(C(=O)Nc3ccc(C#CC4(O)CCCCCC4)cc31)[C@H]2c1ccc(O)cc1

Resp:
0.475
1.19

For each entry beneath this line, provide reported composite z-score.
1. COc1ccc([Si](C)(C)[C@@H]2[C@@H](CC(=O)N3Cc4ccccc4C[C@H]3CO)O[C@]3(C(=O)N(c4ccccc4)c4ccccc43)[C@H]2C)cc1
2. COc1ccc([Si](C)(C)[C@H]2[C@H](CCO)O[C@@]3(C(=O)N(Cc4ccccc4)c4ccc(N5CCOC5=O)cc43)[C@@H]2C)cc1
3. CCOC(=O)C[C@H]1[C@H](OC(=O)c2ccc(-c3ccccc3)cc2)[C@@H](NC(=O)Cc2ccc(OC)cc2)c2cc(OCCCO)ccc2N1C(=O)Cc1ccc(OC)cc1

Resp:
1.36
0.299
0.767

For each entry beneath this line, provide reported composite z-score.
1. C=C(/C(=C/C[C@H](OC(=O)c1ccncc1)c1ccccc1OCCO)c1cnc2ccccc2c1)C(C)C
2. C=C[C@@H](OC)[C@H](OC(=O)Nc1ccc(SC)cc1)c1ccc(OCCO)cc1
3. CC(C)N1CC=CC23O[C@@H]4/C=C\CCCOC(=O)C4[C@H]2C(=O)N(CCCCCCO)[C@@H]3C1=O (stereo not given in full)
4. COC(=O)C1N=C(c2ccc(OCCCO)cc2)N(c2ccccc2)O1 (stereo not given)
5. CC(C)=CCCC(C)=CC(O)C1C=CC2C(=O)N(c3ccccc3)C(=O)C2N1Nc1ccccc1F (stereo not given)
6. C=C(COC)C(=O)CC[C@H](OC(=O)c1cccnc1)c1ccc(CO)o1
7. [N-]=[N+]=NCc1ccccc1C[C@@]1(C(=O)N2CCCCC2)N=C(c2ccc(OCCCO)cc2)O[C@@H]1c1ccccc1CN=[N+]=[N-]

Resp:
1: -0.558; 2: -0.0827; 3: -0.488; 4: 0.576; 5: -0.132; 6: -0.875; 7: 1.37

###

- experiment: modulators of HCV replicon luciferase signal, primary screen, HCV replication inhibitor project, Huh7 cells, luciferase reporter (AID 1109);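 note: huh7 hepatoma cells harbouring a luciferase neomycin HCV replicon reporter; luciferase luminescence as measure of HCV replicon replication; test concentration not given here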
- conditionParameters: 48 h, higher = more signal
Provide the recorded z-score for the entries that follow.

# example entries with known answers
COCCOC(=O)N1C(=O)[C@@]2(c3cc(C#Cc4ccc(OC)cc4)ccc31)[C@H](C(=O)NC[C@H](O)c1ccccc1)[C@H]1C(=O)O[C@H](c3ccccc3)[C@H](c3ccccc3)N1[C@@H]2c1ccc(OCCO)cc1
-1.52
CO[C@H]1O[C@H](CO)[C@@H](OC(=O)Nc2ccc(C#N)cc2)[C@@H]2OC(=O)[C@H](Cc3cccc(Br)c3)C/C=C/C[C@@H](Cc3cccc(Br)c3)C(=O)O[C@@H]12
-3.4
C=C(C)C1CCC(C(O)C2C=CC3C(=O)N(C)C(=O)C3N2Nc2cc(OC)c(OC)c(OC)c2)CC1 (centres undefined)
-0.355
C=C(COC)/C(=C/C[C@H](OC(C)=O)c1cccc(OCCO)c1)c1cnc2ccccc2c1
-1.7

For each entry beneath this line, provide reported z-score.
1. CCCCCCCCCCC(O)C1C=CC2C(=O)N(C)C(=O)C2N1Nc1cc(OC)c(OC)c(OC)c1 (centres undefined)
2. COc1cc2c(cc1O)C(c1ccc(CN3CCCC3)cc1)N(C)CC2 (centres undefined)
3. [N-]=[N+]=NCc1ccccc1[C@@H]1OC(c2ccc(OCCCO)cc2)=N[C@]1(Cc1ccccc1)C(=O)NCCN1CCOCC1
4. NC(=O)NCC#Cc1ccc2c(c1)[C@]1(C(=O)N2)[C@H](C(=O)N2CCN(c3ncccn3)CC2)[C@H]2C(=O)O[C@H](c3ccccc3)[C@H](c3ccccc3)N2[C@@H]1c1ccc(OCCO)cc1
5. CC(C)OC(=O)CC(=O)CC(O)c1ccc([N+](=O)[O-])cc1 (centres undefined)

Resp:
-2.01
-1.02
-2.37
-1.6
-0.601

For each entry beneath this line, provide reported z-score.
1. COC(=O)[C@@]1(Cc2ccc(OC)cc2)[C@H]2c3cc(C(=O)N4CCCC4)n(Cc4ccc(S(C)(=O)=O)cc4)c3C[C@H]2CN1C(=O)c1ccccc1
2. CCC(CC)C(O)C1C=CC2C(=O)N(c3ccccc3)C(=O)C2N1Nc1ccc([N+](=O)[O-])cc1 (centres undefined)
3. C=C(COC)C(=O)CC[C@H](OC(C)=O)c1ccc(OCCO)cc1
4. COCCOC(=O)N1C(=O)[C@@]2(c3cc(C#CC4(O)CCCCCC4)ccc31)[C@H](c1ccc(OCCO)cc1)N1[C@H](c3ccccc3)[C@H](c3ccccc3)OC(=O)[C@H]1[C@@H]2C(=O)Nc1nc2ccccc2s1
5. COC(=O)[C@@]1(Cc2ccccc2CN=[N+]=[N-])N=C(c2ccc(OCCCO)cc2)O[C@H]1c1ccccc1CN=[N+]=[N-]

Resp:
[-0.887, -0.451, -1.17, -2.43, -2.92]

###

- System: Noggin (protein binding on small-molecule microarray)
- experiment: Noggin binders on small-molecule microarray, primary screen, biochemical, 635/667 nm fluorescence (AID 1095);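 note: score merges 667 nm feature fluorescence with signal to noise over triplicate slides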
- conditionParameters: 635 nm fluorescence, higher = more signal
reportedMetric: composite z-score
Answers are plain numbers.

# example entries with known answers
C=CCC(OC(C)=O)[C@@H]1[C@@H](N(Cc2ccc(-c3ccccc3)cc2)C(=O)c2ccc(C)cc2)c2cc(OCCCO)ccc2N1C(=O)Cc1ccc2ccccc2c1 (some centres not stated)
-0.0965
C=CCN1C(=O)[C@@]2(O[C@@H](CCO)[C@H]([Si](C)(C)c3ccc(OC)cc3)[C@H]2C)c2cc(N3CCOC3=O)ccc21
-0.355
CC(C)C[C@@H]1NC(=O)[C@H]2C[C@@H](C(=O)NCCCCCN)[C@@H](c3cccc(OCCO)c3)N2C1=O
-0.993
CO[C@H]1O[C@H](CO)[C@@H](OC(=O)Nc2ccc(C#N)cc2)[C@@H]2OC(=O)[C@H](Cc3cccc(Br)c3)C/C=C/C[C@@H](Cc3cccc(Br)c3)C(=O)O[C@@H]12
0.432
COC(=O)C1N=C(c2ccc(OCCCO)cc2)N(c2ccccc2)O1 (configuration not stated)
0.981
[N-]=[N+]=NC[C@H](Cc1ccccc1)NC(=O)c1ccccc1
0.014

GET /values?item= C=CCC(OC(C)=O)[C@@H]1[C@@H](N(Cc2ccc(-c3cccc(C(F)(F)F)c3)o2)C(=O)c2ccc(C)cc2)c2cc(OCCCO)ccc2N1C(=O)Cc1ccc(OC)cc1 (some centres not stated) &system= Noggin (protein binding on small-molecule microarray) returns composite z-score: -0.0236

###

- experiment: binders of probe aFSTL3 on microarray, primary screen, stem cell growth factor project, biochemical, small-molecule microarray, fluorescence 635/667 (AID 1064);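 note: measures binding of the biotinylated anti-FSTL3 antibody to printed compounds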
- conditionParameters: higher = more signal
Provide the recorded composite z-score for the entries that follow.

# example entries with known answers
COC(=O)[C@@]1(Cc2ccc(F)cc2)[C@H]2c3cc(C(=O)N4CCCC4)n(C)c3C[C@H]2CN1C(=O)c1ccccc1
1.18
COCCOC(=O)N1C(=O)[C@@]2(c3cc(C#CC4(O)CCCCCC4)ccc31)[C@H](C(=O)N1CCN(c3ncccn3)CC1)[C@H]1C(=O)O[C@H](c3ccccc3)[C@H](c3ccccc3)N1[C@@H]2c1ccccc1OCCO
-0.215
COCCOC(=O)N1C(=O)[C@@]2(c3cc(C#CCNC(N)=O)ccc31)[C@H](c1ccc(O)cc1)N1[C@H](c3ccccc3)[C@H](c3ccccc3)OC(=O)[C@H]1[C@@H]2C(=O)N1CCN(c2ncccn2)CC1
-0.487
C=C(/C(=C/C[C@H](OC(=O)c1ccncc1)c1ccccc1OCCO)c1cnc2ccccc2c1)C(C)C
-0.145
COCCOC(=O)N1C(=O)[C@@]2(c3cc(C#Cc4ccc(OC)cc4)ccc31)[C@H](c1ccc(OCCO)cc1)N1[C@H](c3ccccc3)[C@H](c3ccccc3)OC(=O)[C@H]1[C@@H]2C(=O)Nc1nc2ccccc2s1
-0.118

For each entry beneath this line, provide reported composite z-score.
1. CN1C(=O)C2C(C1=O)C1C=C(CCCO)C2C(C2CC2)N1Cc1cc2c(cc1Br)OCO2 (configuration not stated)
2. CCOC(=O)C1=CCC(c2ccco2)N(S(=O)(=O)c2ccc(C)cc2)C1 (configuration not stated)

Resp:
0.454
0.632

# credit: PubChem BioAssay
